assayed_target: T1, human TF on the cell surface of tumor cells (human, UniProt P13726 33-295)
T1 construct: whole, on cells; Endogenous TF on TF-positive human tumor cell lines; also called cell surface TF
protocol_text: flow cytometry on MDA-MB-231 cells, antibody at 1 µg/mL
Experimental: The cells were washed with PBS twice to remove the unbound primary antibody, and the target cells were incubated with 200 μL PE-labeled secondary antibody (2 μg/mL) at 4° C. for 30 min. The cells were washed with PBS twice to remove the unbound secondary antibody, and finally the cells were re-suspended in 400 μL PBS.
This section presents binders with their documented MFI values.
Write the number on its own, no unit after it.

In the examples that follow, each entry is paired with its recorded MFI.
{"binder": "TF-mAb-H31 (antibody, V domains shown, Humanized) VH: EVQLVQSGAEVKKPGESLKISCKGSGYSFTSYWMNWVKQMPGKGLEWMGMIYPADSETRLNQKFKDKATLSVDKSISTAYLQWSSLKASDTAMYYCAREDYGSSDYWGQGTTVTVSS VL: EIVLTQSPATLSLSPGERATLSCSASSSVSYMNWYQQKPGQAPRIWIYGISNLASGIPARFSGSGSGTDFTLTISSLEPEDFAVYYCQQKSSFPWTFGGGTKVEIK", "quantitative_result": 3080}
{"binder": "TF-mAb-H44 (antibody, V domains shown, Humanized; also called humanized antibody TF-mAb-H44) VH: EVQLVQSGAEVKKPGESLKISCKGSGYSFTSYWMNWVRQMPGKGLEWMGMIYPADSETRLNQKFKDQATLSVDKSISTAYLQWSSLKASDTAMYYCAREDYGSSDYWGQGTTVTVSS VL: EIVLTQSPDFQSVTPKEKVTITCSASSSVSYMNWYQQKPDQSPKIWIYGISNLASGVPSRFSGSGSGTDFTLTINSLEAEDAATYYCQQKSSFPWTFGGGTKVEIK", "quantitative_result": 3200}

## Input Recorded MFI of TF-mAb-H30 (antibody, V domains shown, Humanized) VH: EVQLVQSGAEVKKPGESLKISCKGSGYSFTSYWMNWVRQMPGKGLEWMGMIYPADSETRLNQKFKDKATLSVDKSISTAYLQWSSLKASDTAMYYCAREDYGSSDYWGQGTTVTVSS VL: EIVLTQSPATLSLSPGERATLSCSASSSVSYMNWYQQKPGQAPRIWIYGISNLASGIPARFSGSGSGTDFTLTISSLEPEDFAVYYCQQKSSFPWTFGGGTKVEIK , please.
## Output 2930
